Biological target: Luciferin 4-monooxygenase (Photinus pyralis)
Assay: qHTS profiling assay for firefly luciferase inhibitor/activator using purifed enzyme and Km concentrations of substrates (counterscreen for miR-21 project); further: nearly all actives have a fitted effect of over 55% in size
Conditions: purified FLuc, luminescence inhibition; series mostly up to 57.5 µM
From the text: MLPCN Grant: 1 R21 NS059478-01 (miR-21 grant) Assay Provider: NCGC NCGC Assay Overview: Firefly (Photinus pyralis) luciferase is one of the most commonly used transcriptional reporters for a number of reasons. […] Although light produced in a bioluminescence reaction is of lower intensity than that produced during fluorescence emission, this is offset by little to no background light inherent to luminescent assays. […]
The campaign covered roughly 360,000 compounds. About 25,000 (6.9%) were called active. About 9% were inconclusive and are not listed. The call rests on the fitted dose curve; in most records, active means well fitted inhibition curve with a large enough effect; inconclusive means small, poorly fitted or top-dose-only effect; inactive means flat fitted curve, though single readings scatter. The list comes from a sample in which actives are over-represented; it also holds close analogues and randomly drawn compounds.
Possible outcomes: active, inactive

1. CCC(=O)c1cc2c(cc1NC(=O)c1cccs1)OCCO2: inactive
2. CN1CCN(C(=O)/C(=C\c2ccc3c(c2)OCO3)NC(=O)c2cccs2)CC1: inactive
3. CN(Cc1ccccc1)c1ncnc2onc(-c3ccc(F)cc3)c12: inactive
4. Cc1cc(Oc2ccc(Cl)cc2)nc(SCC(=O)c2ccccc2)n1: inactive
5. Cc1cc(C)cc(OCC(=O)NNC(=O)CCN2C(=O)c3ccccc3C2=O)c1: inactive
6. Cc1cc(C(=O)OCC(=O)Nc2nccs2)c2ccccc2n1: inactive
7. O=C(CCCN1C(=O)c2ccccc2C1=O)Oc1ccc(Cl)cc1: inactive
8. O=C1c2ccccc2C(=O)N1CCC#Cc1ccc2cc(C3(O)CCCCC3)oc(=O)c2c1: inactive
9. CN(C)S(=O)(=O)c1cccc(C(=O)OCC(=O)N2CCCC2=O)c1: inactive
10. COc1ccc(CCNC(=O)CCCn2c(=O)c3ccccc3n(Cc3ccc(C)cc3)c2=O)cc1OC: inactive
11. Cc1cc(-c2n[nH]c(=S)n2-c2ccc(C)c(C)c2)no1: inactive
12. COc1cc(C(=O)NCC2(c3ccccc3)CCCC2)ccc1OC(C)C: inactive
13. CCCc1cc(-c2nc(-c3ccc(C)cc3)cs2)ccn1: active
14. Cc1ccc2nc(-c3cccc(Br)c3)cc(C(=O)Nn3cnnc3)c2c1: active
15. Cc1cc(C)nc(S/C=C/C(=O)c2ccccc2)n1: active
16. NC(=O)c1cc(-c2cccnc2)nc2ccc(Br)cc12: inactive
17. CCOC(=O)c1c(C)[nH]c(C(=O)NCCN2CCOCC2)c1C: inactive
18. O=C(c1ccc(F)cc1)n1cc(C(=S)N2CCOCC2)c2ccccc21: inactive
19. CC1Cc2ccccc2N1C(=O)CSc1nnc(C2CC2)n1C (stereo not drawn): inactive
20. Cc1cccnc1CCNC(=O)C1CCC(=O)N(Cc2cccc(F)c2)C1 (stereo not drawn): inactive
21. Cc1ccccc1OCc1nnc(SCC(=O)N2c3ccccc3Sc3ccc(Cl)cc32)o1: inactive
22. CCC(C)Sc1nnc(-c2c[nH]c3ccccc23)n1CCOC (stereo not drawn): inactive
23. CCCc1cc(-c2n[nH]c(=S)n2CC)c2ccccc2n1: inactive
24. O=C(NNC(=O)C(O)c1ccccc1)NC1CCCCC1 (stereo not drawn): inactive
25. O=C1N/C(=C/c2cccs2)C(=O)N1Cc1ccc(F)cc1: inactive
26. CCOC(=O)c1[nH]c(C)c(C(=O)OCC(=O)N2c3ccccc3CC2C)c1C (stereo not drawn): inactive
27. Cc1ccc(-c2csc(-c3cc(C)on3)n2)cc1: active
28. CCS(=O)(=O)Nc1cccc(-c2cc(-c3ccccc3)c3cc(C)ccc3n2)c1: inactive
29. Cc1cc(-c2nc(C)c(-c3nnc(SCC(=O)Nc4ccccc4)n3C)s2)no1: inactive
30. CCOc1ccc(NC(=O)CN(Cc2ccccc2)S(=O)(=O)c2ccc(Cl)cc2)cc1: inactive
31. Cc1ccc(-c2nnc(SCC(=O)NCc3ccccc3)nc2-c2ccc(C)cc2)cc1: inactive
32. CCOc1cc2[nH]c(=O)n(Cc3ccc(C(=O)NCCN(CC)CC)cc3)c(=O)c2cc1OCC: inactive
33. COc1cc(NC(=O)c2nc3ccccc3nc2C)cc(OC)c1OC: inactive
34. Cc1ccc2nc(-c3ccncc3)cc(C(=O)Nc3ccc4c(c3)OCCO4)c2c1: inactive
35. Cc1noc2ncnc(NCc3ccccc3Cl)c12: inactive
36. Cc1cc(C(=O)COC(=O)CCCN2C(=O)c3ccccc3C2=O)c(C)n1C: active
37. Cc1ccc(-c2cc(C(=O)NCc3cn(C)nc3C)c3cc(Br)ccc3n2)cc1: active
38. O=C(NCC(c1cccs1)N1CCOCC1)c1cc(-c2ccccn2)nc2ccccc12 (stereo not drawn): inactive
